- Assay procedure: Nanoparticle zeta potential (Malvern Zetasizer Nano ZS)
- Format: physicochemical
- Measurement context: LNP with sterol amine; core LNP Compound 18, DSPC, β-sitosterol, Cholesterol, and DMG-PEG 2K; [mRNA] 0.01 mg/mL in 0.1×PBS
Counter-ions that a name gives are not always drawn.

Molecule	Unit text	Zeta Potential
CC(C)CCC[C@@H](C)[C@H]1CC[C@H]2[C@@H]3CC=C4C[C@@H](OC(=O)N(CCCN)CCCCN)CC[C@]4(C)[C@H]3CC[C@]12C [SA29, dihydrochloride]	mV	8.3
CC(C)CCC[C@@H](C)[C@H]1CC[C@H]2[C@@H]3CC=C4C[C@@H](OC(=O)NCCCNCCCCN)CC[C@]4(C)[C@H]3CC[C@]12C [SA30, dihydrochloride]	mV	8.7
CC(C)CCC[C@@H](C)[C@H]1CC[C@H]2[C@@H]3CC=C4C[C@@H](OC(=O)CCC(=O)N(CCCN)CCCCN)CC[C@]4(C)[C@H]3CC[C@]12C [SA31, dihydrochloride]	mV	8.6
CC(C)CCC[C@@H](C)[C@H]1CC[C@H]2[C@@H]3CC=C4C[C@@H](OC(=O)NCCNC(=N)N)CC[C@]4(C)[C@H]3CC[C@]12C [SA23, hydrochloride salt]	mV	12.7
